system: Staphylococcus aureus; assay: Antibacterial activity against methicillin-resistant Staphylococcus aureus ATCC 43300 after 18 hrs by macro broth dilution assay; assay type: functional; settings: Staphylococcus aureus, ATCC 43300, 18 h
Assay metric: log10 MIC (log10 of the value in µg/mL)
Values below are the log10 of the recorded MIC, with µg/mL as the unit.

Consider the following illustrative entries.
>>> value_measured("FC(F)(F)Oc1ccc(Nc2nc3cc(Cl)ccc3[nH]2)cc1")
-0.11
>>> value_measured("Clc1ccc(Nc2nc3ccccc3[nH]2)cc1Cl")
0.80
>>> value_measured("FC(F)(F)c1cccc(Nc2nc3cc(Cl)ccc3[nH]2)c1")
0.19
>>> value_measured("Cc1cc2[nH]c(Nc3ccc(Cl)c(Cl)c3)nc2cc1Cl")
-0.41
>>> value_measured("Clc1ccc(Nc2nc3cc(Cl)c(Cl)cc3[nH]2)cc1")
-0.41
>>> value_measured("Clc1ccc2[nH]c(Nc3ccc(Br)cc3)nc2c1")
-0.11

Q: Please report the recorded log10 MIC for "FC(F)(F)c1ccc2[nH]c(Nc3ccc(Cl)c(Cl)c3)nc2c1" .
Ans: -0.72

Q: Any idea what its log10 MIC is? The compound is "Clc1ccc(Nc2nc3cc(Br)ccc3[nH]2)cc1Cl"
Ans: -0.72

Q: Would you mind telling me what log10 MIC value was observed for "Fc1ccc(Nc2nc3cc(Cl)ccc3[nH]2)cc1" ?
Ans: 1.10

Q: If you can, please state the reported log10 MIC value of "FC(F)(F)c1cc(Nc2nc3cc(Cl)ccc3[nH]2)ccc1Cl" .
Ans: -0.41

Q: Which log10 MIC value is on record for "Fc1ccc(Nc2nc3cc(Cl)ccc3[nH]2)c(F)c1" ?
Ans: 0.80

Q: Value lookup for log10 MIC; key = "Clc1ccc(Nc2nc3cc(Cl)ccc3[nH]2)cc1"
Ans: 0.19
